Hey, just so you know, these numbers are from paper PMC11859184.

assay: Ex vivo biodistribution of 68Ga-labeled tracers in PC-3 tumor-bearing mice; conditions: mouse, brain, intravenous, 100 ug; 1 h pi, blocked (100 µg blocking agent co-injected); read-out: Brain uptake
For each record, write down the corresponding tissue uptake at 1 h.
Kindly answer with a numeric value in %ID/g, unit omitted.

Look up tissue uptake at 1 h for this compound: CC(C)C[C@H](NC(=O)[C@H](Cc1cnc[nH]1)N(C)C(=O)CNC(=O)[C@@H](NC(=O)[C@H](C)NC(=O)[C@H](Cc1c[nH]c2ccccc12)NC(=O)[C@H](CCC(N)=O)NC(=O)[C@@H](Cc1ccccc1)NC(=O)CN1CCC(NC(=O)CN2CCN(CC(=O)O)CCN(CC(=O)O)CCN(CC(=O)O)CC2)CC1)C(C)(C)C)C(=O)N1CC(F)(F)C[C@H]1C(N)=O [[^68Ga]Ga-LW02060, metal not drawn] 0.05

Look at this compound and give its reported tissue uptake at 1 h. CC(C)C[C@@H](CN1CC(F)(F)C[C@H]1C(N)=O)NC(=O)[C@H](Cc1c[nH]cn1)NC(=O)CN(C)C(=O)[C@@H](NC(=O)[C@H](C)NC(=O)[C@H](Cc1c[nH]c2ccccc12)NC(=O)[C@H](CCC(N)=O)NC(=O)[C@@H](Cc1ccccc1)NC(=O)CN1CCC(NC(=O)CN2CCN(CC(=O)O)CCN(CC(=O)O)CCN(CC(=O)O)CC2)CC1)C(C)C [[^68Ga]Ga-LW02080, metal not drawn] 0.06
